Here, each record is paired with measured IC50 data.
SYSTEM: Interstitial collagenase [100-268] (Homo sapiens, UniProt P03956)
Sequence (P03956 100-268): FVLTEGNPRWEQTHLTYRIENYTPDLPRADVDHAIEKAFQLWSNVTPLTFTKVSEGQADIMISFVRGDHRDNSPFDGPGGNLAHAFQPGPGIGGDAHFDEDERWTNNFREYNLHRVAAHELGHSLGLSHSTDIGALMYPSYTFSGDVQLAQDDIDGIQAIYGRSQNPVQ

[
  {
    "SUBSTANCE SMILES": "O=c1cc(-c2ccc(O)c(O)c2)oc2cc(O)cc(O)c12",
    "SYSTEM": "Interstitial collagenase [100-268] (Homo sapiens, UniProt P03956)",
    "IC50": "3030 nM"
  },
  {
    "SUBSTANCE SMILES": "O=c1c(O)c(-c2cc(O)c(O)c(O)c2)oc2cc(O)cc(O)c12",
    "SYSTEM": "Interstitial collagenase [100-268] (Homo sapiens, UniProt P03956)",
    "IC50": "2920 nM"
  }
]

Reference source for all entries: BindingDB's records for doi:10.3109/14756366.2012.681650
